Test target: AMPK
Method description: AMPK activation, enzyme-linked immunosorbent assay
Type: biochemical
Test settings: compounds of Table 1 (Table 6)
pEC50: −log10 of the molar value.
The following compounds are shown together with reported pEC50 values.
Reported endpoint: pEC50

[
  {
    "Structure smiles": "O=C(NC1CCN(Cc2ccccc2)CC1)c1ccc(OC2CCN(c3ccc(C(F)(F)F)cc3)CC2)cn1",
    "Test target": "AMPK",
    "Val": "5.30 to 6.00"
  },
  {
    "Structure smiles": "O=C(NC1CCN(Cc2cccnc2)CC1)c1cc2ccc(OC3CCN(c4ccc(OC(F)(F)F)cc4)CC3)cc2o1",
    "Test target": "AMPK",
    "Val": "> 7.00"
  },
  {
    "Structure smiles": "O=C(N[C@H]1CCN(Cc2cccnc2)C1)c1cc2cc(OC3CCN(Cc4ccc(Cl)cc4)CC3)ccc2o1",
    "Test target": "AMPK",
    "Val": "5.30 to 6.00"
  },
  {
    "Structure smiles": "O=C(NC1CCN(Cc2cn(C(c3ccccc3)(c3ccccc3)c3ccccc3)cn2)CC1)c1ccc(OC2CCN(c3ccc(C(F)(F)F)cc3)CC2)cn1",
    "Test target": "AMPK",
    "Val": "5.30 to 6.00"
  },
  {
    "Structure smiles": "CC(C)(C)OC(=O)N1CCC(NC(=O)c2ccc(OC3CCN(c4ccc(C(F)(F)F)cc4)CC3)nc2)CC1",
    "Test target": "AMPK",
    "Val": "6.30 to 7.00"
  },
  {
    "Structure smiles": "O=C(NC1CCN(Cc2ccccc2)CC1)c1cc2cc(OC3CCN(Cc4ccc(F)c(F)c4)CC3)ccc2o1",
    "Test target": "AMPK",
    "Val": "6.30 to 7.00"
  },
  {
    "Structure smiles": "O=C(NC1CCN(Cc2c[nH]cn2)CC1)c1ccc(OC2CCN(c3ccc(C(F)(F)F)cc3)CC2)cn1",
    "Test target": "AMPK",
    "Val": "5.30 to 6.00"
  },
  {
    "Structure smiles": "O=C(NC1CCN(Cc2ccncc2)CC1)c1cccc(OC2CCN(c3ccc(C(F)(F)F)cc3)CC2)n1",
    "Test target": "AMPK",
    "Val": "5.30 to 6.00"
  },
  {
    "Structure smiles": "O=S(=O)(NC1CCN(Cc2ccc(C(F)(F)F)cc2)CC1)c1ccc(OC2CCN(c3ccc(C(F)(F)F)cc3)CC2)nc1",
    "Test target": "AMPK",
    "Val": "> 7.00"
  },
  {
    "Structure smiles": "O=C(NC1CCN(Cc2ccccn2)CC1)c1sc2cc(OC3CCN(c4ccc(C(F)(F)F)cc4)CC3)ccc2c1Cl",
    "Test target": "AMPK",
    "Val": "6.30 to 7.00"
  },
  {
    "Structure smiles": "O=C(NC1CCN(Cc2ccncc2)CC1)c1cc2ccc(OC3CCN(c4ccc(C(F)(F)F)cc4)CC3)cc2o1",
    "Test target": "AMPK",
    "Val": "> 7.00"
  },
  {
    "Structure smiles": "O=C(NC1CCN(Cc2ccncc2)CC1)c1cc(OC2CCN(c3ccc(C(F)(F)F)cc3)CC2)ccn1",
    "Test target": "AMPK",
    "Val": "6.30 to 7.00"
  },
  {
    "Structure smiles": "Cc1c(C(=O)NC2CCN(Cc3ccc(F)cc3)CC2)oc2cc(OC3CCN(c4ccc(C(F)(F)F)cc4)CC3)ccc12",
    "Test target": "AMPK",
    "Val": "> 7.00"
  },
  {
    "Structure smiles": "O=C(NC1CCN(Cc2ccc(C(F)(F)F)cc2)CC1)c1cc2cc(OC3CCN(c4ccc(C(F)(F)F)cc4)CC3)ccc2o1",
    "Test target": "AMPK",
    "Val": "> 7.00"
  },
  {
    "Structure smiles": "O=C(NC1CCN(S(=O)(=O)c2cccnc2)CC1)c1cc2ccc(OC3CCN(c4ccc(OC(F)(F)F)cc4)CC3)cc2o1",
    "Test target": "AMPK",
    "Val": "6.30 to 7.00"
  }
]

* * *

Test target: AMPK
Method description: AMPK activation, enzyme-linked immunosorbent assay
Assay type: biochemical
Test settings: compounds of Table 1 (Table 6)
pEC50: −log10 of the molar value.
The following compounds are shown together with reported pEC50 values.

[
  {
    "Structure smiles": "O=C(N[C@H]1CCN(Cc2ccncc2)C1)c1cc2cc(OC3CCN(Cc4ccc(Cl)cc4)CC3)ccc2o1",
    "pEC50": "5.30 to 6.00"
  },
  {
    "Structure smiles": "O=S(=O)(NC1CCN(Cc2cccc(C(F)(F)F)c2)CC1)c1ccc(OC2CCN(c3ccc(C(F)(F)F)cc3)CC2)nc1",
    "pEC50": "6.30 to 7.00"
  },
  {
    "Structure smiles": "O=C(NC1CCN(Cc2ccccn2)CC1)c1cc2ccc(OC3CCN(c4ccc(C(F)(F)F)cc4)CC3)cc2o1",
    "pEC50": "6.30 to 7.00"
  },
  {
    "Structure smiles": "CC(C)(C)OC(=O)N1CCC(NC(=O)c2cc3ccc(OC4CCN(c5ccc(C(F)(F)F)cc5)CC4)cc3o2)CC1",
    "pEC50": "6.30 to 7.00"
  },
  {
    "Structure smiles": "N#Cc1cccc(CN2CCC(NS(=O)(=O)c3ccc(OC4CCN(c5ccc(C(F)(F)F)cc5)CC4)nc3)CC2)c1",
    "pEC50": "6.00 to 6.30"
  },
  {
    "Structure smiles": "O=C(NC1CCN(Cc2cccnc2)CC1)c1cncc(OC2CCN(c3ccc(C(F)(F)F)cc3)CC2)c1",
    "pEC50": "> 7.00"
  },
  {
    "Structure smiles": "O=C(NC1CCN(Cc2ccc(F)cc2)CC1)c1cc2ccc(OC3CCN(c4ccc(C(F)(F)F)cc4)CC3)cc2o1",
    "pEC50": "< 5.00"
  },
  {
    "Structure smiles": "N#Cc1ccccc1CN1CCC(NC(=O)c2cc3ccc(OC4CCN(c5ccc(C(F)(F)F)cc5)CC4)cc3s2)CC1",
    "pEC50": "6.30 to 7.00"
  },
  {
    "Structure smiles": "N#Cc1ccc(CN2CC[C@@H](NC(=O)c3ccc(OC4CCN(c5ccc(C(F)(F)F)cc5)CC4)cn3)C2)cc1",
    "pEC50": "6.00 to 6.30"
  },
  {
    "Structure smiles": "O=C(NC1CCN(Cc2ccccc2)CC1)c1cc2cc(OC3CCN(Cc4cccc(C(F)(F)F)c4)CC3)ccc2o1",
    "pEC50": "6.00 to 6.30"
  },
  {
    "Structure smiles": "N#Cc1ccccc1CN1CCC(NC(=O)c2cc3ccc(OC4CCN(c5ccc(OC(F)(F)F)cc5)CC4)cc3o2)CC1",
    "pEC50": "> 7.00"
  },
  {
    "Structure smiles": "O=C(NC1CCN(Cc2ccc(C(F)(F)F)cc2)CC1)c1cc2ccc(OC3CCN(c4ccc(C(F)(F)F)cc4)CC3)cc2o1",
    "pEC50": "> 7.00"
  },
  {
    "Structure smiles": "N#Cc1ccc(CN2CCC(NC(=O)c3ccc(OC4CCN(c5ccc(C(F)(F)F)cc5)CC4)nc3)CC2)cc1",
    "pEC50": "6.30 to 7.00"
  },
  {
    "Structure smiles": "N#Cc1ccc(N2CCC(Oc3ccc4oc(C(=O)NC5CCN(Cc6ccccc6)CC5)cc4c3)CC2)cc1",
    "pEC50": "> 7.00"
  },
  {
    "Structure smiles": "CN(C(=O)c1cc2cc(OC3CCN(c4ccc(C(F)(F)F)cc4)CC3)ccc2o1)C1CCN(Cc2ccccc2C#N)CC1",
    "pEC50": "6.30 to 7.00"
  }
]

* * *

The following molecules are shown together with reported pEC50 values.
Test target: AMPK
Method description: AMPK activation, enzyme-linked immunosorbent assay
Assay type: biochemical
Test settings: compounds of Table 2 (Table 7)
pEC50: −log10 of the molar value.

[
  {
    "Structure smiles": "O=C(NC1CCN(S(=O)(=O)c2ccc(F)cc2)CC1)c1ccc2[nH]c3c(c2c1)CN(Cc1ccc(C(F)(F)F)cc1)CC3",
    "pEC50": "5.30 to 6.00"
  },
  {
    "Structure smiles": "O=C(NC1CCN(S(=O)(=O)c2cccnc2)CC1)c1ccc2[nH]c3c(c2c1)CN(Cc1ccc(C(F)(F)F)cc1)CC3",
    "pEC50": "6.00 to 6.30"
  },
  {
    "Structure smiles": "N#Cc1ccc(S(=O)(=O)N2CCC(NC(=O)c3ccc4[nH]c5c(c4c3)CN(Cc3ccc(C(F)(F)F)cc3)CC5)CC2)cc1",
    "pEC50": "6.00 to 6.30"
  },
  {
    "Structure smiles": "O=C(NC1CCN(Cc2ccc(C(F)(F)F)cc2)CC1)c1ccc2[nH]c3c(c2c1)CN(c1ccc(F)cc1)CC3",
    "pEC50": "5.00 to 5.30"
  },
  {
    "Structure smiles": "CC(C)(C)OC(=O)N1CCC(NC(=O)c2ccc3[nH]c4c(c3c2)CN(Cc2ccc(C(F)(F)F)cc2)CC4)CC1",
    "pEC50": "6.00 to 6.30"
  },
  {
    "Structure smiles": "N#Cc1ccc(CN2CCC(NC(=O)c3ccc4[nH]c5c(c4c3)CN(S(=O)(=O)c3ccc(C(F)(F)F)cc3)CC5)CC2)cc1",
    "pEC50": "5.30 to 6.00"
  },
  {
    "Structure smiles": "O=C(NC1CCN(Cc2cccnc2)CC1)c1ccc2[nH]c3c(c2c1)CN(Cc1ccc(C(F)(F)F)cc1)CC3",
    "pEC50": "> 6.30"
  },
  {
    "Structure smiles": "N#Cc1ccc(CN2CCC(NC(=O)c3ccc4[nH]c5c(c4c3)CN(S(=O)(=O)c3cccnc3)CC5)CC2)cc1",
    "pEC50": "4.30 to 5.00"
  }
]
